System: SN12C renal
test.description: NCI tumour cell line growth inhibition, 48 h
Here, each record is paired with measured TGI data.
measure: TGI

> print(dat)
                                    compound  assay.target  measure  meas.value
 1  CN(C)c1ccc(/C=C2\N=C(c3ccccc3)N(c3ccc4c(c3)Sc3cc(N5C(=O)/C(=C/c6ccc(N(C)C)cc6)N=C5c5ccccc5)ccc3N4)C2=O)cc1   SN12C renal      TGI     38.9 µM
 2  COc1cc2c(c(OC)c1OC)-c1ccc(SC)c(=O)cc1[C@@H](NC(=O)c1ccc(Cl)cc1)CC2   SN12C renal      TGI     12.7 µM
 3  CC(=O)Nc1cc(Nc2cc(=O)[nH]c(=O)[nH]2)ccc1C   SN12C renal      TGI    > 100 µM
 4  COc1ccc(CCN2CCc3c(C)c(C#N)c4nc5ccccc5n4c32)cc1OC   SN12C renal      TGI    > 100 µM
 5  Cc1cc(Cl)ccc1NS(=O)(=O)c1ccc(-c2cnc(C3CC3)o2)cc1   SN12C renal      TGI     16.5 µM
 6               O=C(/C=C/c1cccs1)c1ccccc1Cl   SN12C renal      TGI     30.2 µM
 7  CCOC(=O)C1(C(F)(F)F)N=C(CC)OC(N2CCOCC2)=N1 (stereo not drawn)   SN12C renal      TGI    > 100 µM
 8  CC(=O)C1C(=O)N(C(C)C)C[C@@H]2CCC(=O)C[C@H]12 (stereo partly drawn)   SN12C renal      TGI    > 100 µM
 9  CCOC(=O)C1CCCCN1CCc1c[nH]c2ccccc12 (stereo not drawn)   SN12C renal      TGI    > 100 µM
10  CCOC(=O)C(NC(=O)c1[nH]cnc1/N=N/N(C)C)C(C)C (stereo not drawn)   SN12C renal      TGI    > 100 µM
11   CCOP(=O)(OCC)/C(C#N)=C/c1cccn1Cc1ccccc1   SN12C renal      TGI    > 100 µM
12  CCOC(=O)c1cnccc1CC1(C#N)c2ccccc2C=CN1C(=O)c1ccccc1 (stereo not drawn)   SN12C renal      TGI     97.3 µM
13  CC1(C)OC2C(COS(N)(=O)=O)SC(n3cnc4cncnc43)C2O1 (stereo not drawn)   SN12C renal      TGI    > 100 µM
